- experimental_system: T1, Human HEVM recombinant protein (Sino Biological, 10334-H02H) (human, UniProt Q92956 39-202)
- T1 construct: construct known only by catalogue number; also called HVEM; human HVEM
- T1 sequence (looked up): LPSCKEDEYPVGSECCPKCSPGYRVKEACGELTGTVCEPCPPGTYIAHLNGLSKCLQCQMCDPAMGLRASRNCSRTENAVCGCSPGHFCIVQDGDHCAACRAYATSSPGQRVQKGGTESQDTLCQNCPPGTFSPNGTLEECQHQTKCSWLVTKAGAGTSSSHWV
- measurement_notes: competition ELISA, competitor BTLA-His
measured_metric: pIC50
pIC50 here is simply -log10 of the concentration when that concentration is written in mol/L.

The cases that follow already have their pIC50 on record.
binder	pIC50
Ab_036 (H5S15-12A13A) (antibody, V domains shown, also called Ab_36) VH: EVQLQQSGAELVKPGASVKLSCTASGFNIKDTYMHWVKQRPEQGLEWIGRIDPANGNTKFDPKFQGKATITADTSSNTAYLQLSSLTSEDTAVYYCASRGGSSFDYWGQGTTLTVSS VL: DIVLTQSPASLAVSLGQRATISCKASQSVDYDGESYMNWYQQKPGQPPKLLIYAASNLDSGIPARFSGSGSGTDFTLNIHPVEEEDAATYYCQQSNEDPLTFGAGTKLELK	9.10
Ab_026 (H5S15-11A3B) (antibody, V domains shown, also called Ab_26) VH: EVQLQQSGADLVKPGASVKLSCTASGFNIKDTYMHWVKQRPEQGLEWIGRIAPANGRTKYDPKFQGKATITADTSSNTAYLQLSSLTSEDTAVYYCANYYASSYDWFAYWGQGTLVTVSA VL: DVLMTQTPLSLTVSLGHQASISCRSSQSIVHSNGNTYLEWYLQKPGQSPKLLIYKVSNRFSGVPDRFSGSGSGTDFTLKISRVEAEDLGVYYCFQGSHVPLTFGAGTKLELK	8.62

Consider the binder Ab_025 (H5S15-2A2A) (antibody, V domains shown, also called Ab_25) VH: EVQLQQSGAELVKPGASVKLSCTASGFNIKDTYMHWVKQRPEQGLEWIGRIDPANDNTKYDPKFQGKATITADTSSNTAYLQLSSLTSEDTAVYYCARVYYAMDYWGQGTSVTVSS VL: DIQMTQSPASLSASVGETVTITCRASENIYSYLAWYQQKQGKSPQLLVYNAKTLAEGVPSRFSGSGSGTQFSLKINSLQPEDFGSYYCQHHYGTYTFGGGTKLEIK and give its measured pIC50.
8.00
